This collection of values is drawn from paper PMC2760403.

Target: M. tuberculosis Riboflavin Synthase (Mycobacterium tuberculosis)
Sequence (P9WK35 whole entry): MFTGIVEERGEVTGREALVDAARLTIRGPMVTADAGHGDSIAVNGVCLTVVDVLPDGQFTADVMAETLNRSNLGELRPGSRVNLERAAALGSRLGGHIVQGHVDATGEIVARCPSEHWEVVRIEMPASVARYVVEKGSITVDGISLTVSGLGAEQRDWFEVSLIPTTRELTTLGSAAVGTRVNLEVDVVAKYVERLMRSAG
Assay: Riboflavin synthase kinetic inhibition assay
Type: biochemical
Settings: recombinant M. tuberculosis RS; pH 7.0
readout-label: Kis (inhibitor dissociation constant, ES + I ⇌ ESI) (µM)

{"columns": ["query-smiles", "value-measured"],
 "data": [
  ["O=c1[nH]c(/C=C/c2ccccc2O)c([N+](=O)[O-])c(=O)[nH]1", 917],
  ["O=c1[nH]c(/C=C/c2ccc(F)cc2)c([N+](=O)[O-])c(=O)[nH]1", 776],
  ["O=c1[nH]c(CCc2ccc(O)cc2)c([N+](=O)[O-])c(=O)[nH]1", 449],
  ["O=c1[nH]c(/C=C/c2cccc(O)c2O)c([N+](=O)[O-])c(=O)[nH]1", 37],
  ["O=c1[nH]c(/C=C/c2cc(O)ccc2O)c([N+](=O)[O-])c(=O)[nH]1", 398],
  ["O=c1[nH]c(/C=C/c2cc([N+](=O)[O-])ccc2O)c([N+](=O)[O-])c(=O)[nH]1", 800]
]}

---

Target: UniProt:P9WHE9
Format: biochemical
Conditions: recombinant M. tuberculosis LS; substrate 1 varied, 2 constant; pH 7.0
Attribute: Kis (inhibitor dissociation constant, ES + I ⇌ ESI)
readout-label: Kis (inhibitor dissociation constant, ES + I ⇌ ESI) (µM)

{"columns": ["molecule", "value-measured"],
 "data": [
  ["COc1ccccc1/C=C/c1[nH]c(=O)[nH]c(=O)c1[N+](=O)[O-]", 44],
  ["O=c1[nH]c(/C=C/c2ccccc2F)c([N+](=O)[O-])c(=O)[nH]1", 13],
  ["O=c1[nH]c(/C=C/c2ccc([N+](=O)[O-])cc2)c([N+](=O)[O-])c(=O)[nH]1", 37],
  ["O=C(O)c1ccc(/C=C/c2[nH]c(=O)[nH]c(=O)c2[N+](=O)[O-])c(O)c1", 468],
  ["O=C(O)c1ccc(/C=C/c2[nH]c(=O)[nH]c(=O)c2[N+](=O)[O-])cc1", 78],
  ["O=c1[nH]c(/C=C/C2C=Nc3ccccc32)c([N+](=O)[O-])c(=O)[nH]1 (stereo not drawn)", 488],
  ["O=c1[nH]c(/C=C/c2ccc(O)cc2)c([N+](=O)[O-])c(=O)[nH]1", 17],
  ["COc1ccc([N+](=O)[O-])cc1/C=C/c1[nH]c(=O)[nH]c(=O)c1[N+](=O)[O-]", 225],
  ["O=c1[nH]c(/C=C/c2ccc3ccccc3c2)c([N+](=O)[O-])c(=O)[nH]1", 72],
  ["COc1ccc(/C=C/c2[nH]c(=O)[nH]c(=O)c2[N+](=O)[O-])cc1OC", 32],
  ["O=c1[nH]c(/C=C/c2cc(O)ccc2O)c([N+](=O)[O-])c(=O)[nH]1", 420],
  ["O=c1[nH]c(/C=C/c2ccc(F)cc2)c([N+](=O)[O-])c(=O)[nH]1", 25]
]}

---

Target: S. pombe Lumazine Synthase (Schizosaccharomyces pombe, UniProt Q9UUB1)
Sequence (Q9UUB1 whole entry): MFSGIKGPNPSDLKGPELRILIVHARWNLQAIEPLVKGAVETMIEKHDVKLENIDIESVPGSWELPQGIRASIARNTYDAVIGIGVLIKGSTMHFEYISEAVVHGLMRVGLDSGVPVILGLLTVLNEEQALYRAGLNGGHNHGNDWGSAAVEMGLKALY
Experiment: Lumazine synthase kinetic inhibition assay
Assay type: biochemical
Conditions: recombinant S. pombe LS; substrate 1 varied, 2 constant; pH 7.0
Attribute: Kis (inhibitor dissociation constant, ES + I ⇌ ESI)
readout-label: Kis (inhibitor dissociation constant, ES + I ⇌ ESI) (µM)

{"columns": ["compound", "value-measured"],
 "data": [
  ["O=c1[nH]c(/C=C/c2ccc[nH]2)c([N+](=O)[O-])c(=O)[nH]1 [Compound 40]", 248],
  ["O=c1[nH]c(/C=C/c2ccc(O)c([N+](=O)[O-])c2)c([N+](=O)[O-])c(=O)[nH]1 [Compound 36]", 276],
  ["COc1ccc(/C=C/c2[nH]c(=O)[nH]c(=O)c2[N+](=O)[O-])cc1O [Compound 20]", 38],
  ["O=c1[nH]c(/C=C/C2C=Nc3ccccc32)c([N+](=O)[O-])c(=O)[nH]1 (centres unmarked) [Compound 44]", 376],
  ["O=C(O)c1ccc(/C=C/c2[nH]c(=O)[nH]c(=O)c2[N+](=O)[O-])c(O)c1 [Compound 37]", 921],
  ["O=c1[nH]c(/C=C/c2ccc(Br)cc2)c([N+](=O)[O-])c(=O)[nH]1 [Compound 30]", 604],
  ["O=c1[nH]c(/C=C/c2ccc3ccccc3c2)c([N+](=O)[O-])c(=O)[nH]1 [Compound 43]", 476],
  ["O=c1[nH]c(/C=C/c2cc(O)ccc2O)c([N+](=O)[O-])c(=O)[nH]1 [Compound 18]", 53]
]}

---

Molecular target: M. tuberculosis Lumazine Synthase (Mycobacterium tuberculosis)
Sequence (P9WHE9 whole entry): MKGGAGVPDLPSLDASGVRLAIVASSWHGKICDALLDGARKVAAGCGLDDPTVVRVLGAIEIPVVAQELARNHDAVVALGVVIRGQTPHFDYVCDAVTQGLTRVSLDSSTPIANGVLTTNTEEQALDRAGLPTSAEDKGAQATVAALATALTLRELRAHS
Type: biochemical
Settings: recombinant M. tuberculosis LS; fit of the compound's data set; pH 7.0
Attribute: kcat (rate constant ES → E + P)

{"columns": ["query-smiles", "kcat (rate constant ES → E + P) (min⁻¹)"],
 "data": [
  ["O=c1[nH]c(NCc2ccccc2)c([N+](=O)[O-])c(=O)[nH]1", 0.56],
  ["COc1ccccc1/C=C/c1[nH]c(=O)[nH]c(=O)c1[N+](=O)[O-]", 0.322],
  ["O=c1[nH]c(/C=C/c2cccc([N+](=O)[O-])c2)c([N+](=O)[O-])c(=O)[nH]1", 0.33],
  ["COc1cccc(/C=C/c2[nH]c(=O)[nH]c(=O)c2[N+](=O)[O-])c1OC", 0.33],
  ["O=c1[nH]c(/C=C/c2ccccc2[N+](=O)[O-])c([N+](=O)[O-])c(=O)[nH]1", 0.31],
  ["O=c1[nH]c(/C=C/c2ccc(F)cc2)c([N+](=O)[O-])c(=O)[nH]1", 0.39],
  ["O=c1[nH]c(/C=C/c2ccc(Br)cc2)c([N+](=O)[O-])c(=O)[nH]1", 0.34],
  ["COc1cccc(/C=C/c2[nH]c(=O)[nH]c(=O)c2[N+](=O)[O-])c1F", 0.35]
]}

---

Target: M. tuberculosis Lumazine Synthase (Mycobacterium tuberculosis)
Format: biochemical
Settings: recombinant M. tuberculosis LS; substrate 1 varied, 2 constant; pH 7.0
readout-label: Kis (inhibitor dissociation constant, ES + I ⇌ ESI) (µM)

{"columns": ["molecule", "study-system", "value-measured"],
 "data": [
  ["COc1cc(/C=C/c2[nH]c(=O)[nH]c(=O)c2[N+](=O)[O-])cc(OC)c1OC [Compound 24]", "M. tuberculosis Lumazine Synthase (Mycobacterium tuberculosis)", 37],
  ["O=c1[nH]c(/C=C/c2ccc(O)c([N+](=O)[O-])c2)c([N+](=O)[O-])c(=O)[nH]1 [Compound 36]", "M. tuberculosis Lumazine Synthase (Mycobacterium tuberculosis)", 461],
  ["O=c1[nH]c(NCc2ccccc2)c([N+](=O)[O-])c(=O)[nH]1 [Compound 45]", "M. tuberculosis Lumazine Synthase (Mycobacterium tuberculosis)", 823],
  ["COc1cccc(/C=C/c2[nH]c(=O)[nH]c(=O)c2[N+](=O)[O-])c1F [Compound 38]", "M. tuberculosis Lumazine Synthase (Mycobacterium tuberculosis)", 89],
  ["O=c1[nH]c(/C=C/c2ccc(Cl)cc2)c([N+](=O)[O-])c(=O)[nH]1 [Compound 31]", "M. tuberculosis Lumazine Synthase (Mycobacterium tuberculosis)", 188],
  ["O=c1[nH]c(/C=C/c2ccc[nH]2)c([N+](=O)[O-])c(=O)[nH]1 [Compound 40]", "M. tuberculosis Lumazine Synthase (Mycobacterium tuberculosis)", 42],
  ["O=c1[nH]c(/C=C/c2ccccc2[N+](=O)[O-])c([N+](=O)[O-])c(=O)[nH]1 [Compound 14]", "M. tuberculosis Lumazine Synthase (Mycobacterium tuberculosis)", 49],
  ["COc1ccc(/C=C/c2[nH]c(=O)[nH]c(=O)c2[N+](=O)[O-])c(OC)c1OC [Compound 23]", "M. tuberculosis Lumazine Synthase (Mycobacterium tuberculosis)", 97]
]}

---

Attribute: Kis (inhibitor dissociation constant, ES + I ⇌ ESI)
Target: S. pombe Lumazine Synthase (Schizosaccharomyces pombe)
Test: Lumazine synthase kinetic inhibition assay
Type: biochemical
Conditions: recombinant S. pombe LS; substrate 1 varied, 2 constant; pH 7.0
readout-label: Kis (inhibitor dissociation constant, ES + I ⇌ ESI) (µM)

{"columns": ["molecule", "study-system", "value-measured"],
 "data": [
  ["O=c1[nH]c(/C=C/c2ccc([N+](=O)[O-])c(O)c2)c([N+](=O)[O-])c(=O)[nH]1 [Compound 35]", "S. pombe Lumazine Synthase (Schizosaccharomyces pombe)", 497],
  ["COc1cc(/C=C/c2[nH]c(=O)[nH]c(=O)c2[N+](=O)[O-])cc(OC)c1OC [Compound 24]", "S. pombe Lumazine Synthase (Schizosaccharomyces pombe)", 47],
  ["COc1cccc(/C=C/c2[nH]c(=O)[nH]c(=O)c2[N+](=O)[O-])c1F [Compound 38]", "S. pombe Lumazine Synthase (Schizosaccharomyces pombe)", 390],
  ["O=c1[nH]c(/C=C/c2ccc([N+](=O)[O-])cc2)c([N+](=O)[O-])c(=O)[nH]1 [Compound 26]", "S. pombe Lumazine Synthase (Schizosaccharomyces pombe)", 15]
]}
